Where these numbers come from: PubChem BioAssay

Assay: decreased DLD-1 cellular survival, CellTiter-Glo luminescent readout, NPC compound collection, primary HTS (AID 1117346)
Details: DLD-1 viability, CellTiter-Glo luminescence; at 20 µM (top of the series)
// assign Fulfilled if viability decrease (inhibition) falls strictly below 30%, else Not fulfilled (ties count as Not fulfilled)

(Q) Identify whether the compound COP(=S)(OC)Oc1ccc(SC)c(C)c1 records viability decrease (inhibition) below 30%.
(A) Fulfilled

(Q) Here is the next compound: Cc1cccc(C)c1NC(=O)CN1CCCC1=O
(A) Fulfilled

(Q) Here is the next compound: CCN(Cc1ccc(Cl)nc1)/C(=C/[N+](=O)[O-])NC
(A) Fulfilled

* * *

Assay: LFS_MB_P medulloblastoma growth inhibition, cell-based, chromothripsis tumors, cisplatin or BGB combos (AID 1671449);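 further: cells exposed for 96 hours; 0% = vehicle DMSO and 100% = killing by high DMSO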
Conditions: LFS_MB_P medulloblastoma cells, measured here: combination with cisplatin, at 5 µM, stronger effect = higher value
readoutLabel: inhibition (%)
One number for each entry, in %.

Below, 4 compounds whose answers are already recorded.
compound | readoutLabel | measureUnit | number
NC(Cc1ccc(N(CCCl)CCCl)cc1)C(=O)O (stereo not given) | inhibition | % | 7.41
O=C1CCC[C@@H]2[C@H]3CCCN4CCC[C@@H](CN12)[C@@H]34 | inhibition | % | 64.5
O=c1[nH]c(=O)n(C2OC(CO)C(O)C2O)cc1F (stereo not given) | inhibition | % | 22.1
O=P(O)(NCCCl)NCCCl | inhibition | % | -32.1

(Q) Return reported inhibition; argument: Cn1c(COP(=O)(NCCBr)NCCBr)cnc1[N+](=O)[O-]
(A) -58.8

* * *

Test: stimulators of nuclear beta-catenin in C2C12, primary screen, imaging, WNT3A-conditioned medium, mouse C2C12, NPC library (AID 1117326); further: reference of the scale not given here
Conditions: at 10 µM, stronger effect = higher value
readoutLabel: nuclear beta-catenin stimulation (%)
Answers are plain numbers, in %.

Below are some compounds; for each one, tell me its nuclear beta-catenin stimulation.
1. CN1C(=O)COc2c(C(=O)NC3CN4CCC3CC4)cc(Cl)cc21 (stereo not given)
2. CC(NC(C)(C)C)C(=O)c1cccc(Cl)c1 (stereo not given)
3. C[C@@H]1O[C@@H](O[C@H]2C[C@@H](O)[C@]3(CO)[C@H]4[C@H](O)C[C@]5(C)[C@@H](C6=CC(=O)OC6)CC[C@]5(O)[C@@H]4CC[C@]3(O)C2)[C@H](O)[C@H](O)[C@H]1O
4. CCCCc1ccc(C(=O)O)nc1
5. CCC1(CC)C(=O)C=CNC1=O

(A)
[3.8, -0.1, 0, 0.7, -0.7]

* * *

Experiment: liver-stage malaria parasite growth inhibition, primary screen, cell-based, HepG2, luciferase luminescence, HepG2 viability (AID 624349);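 further: 100% = mean of DMSO negative control wells on the same plate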
Conditions: P. berghei liver stage in HepG2, luciferase luminescence, concentration not given here; measured here: HepG2 viability without parasites
For each of the compounds below, state its viability.
One number for each entry, in %.

Below, 4 compounds whose answers are already recorded.
compound | measureUnit | number
CCN1C[C@]2(C)CC[C@H](O)[C@]34C1[C@H](C[C@H]23)[C@@]1(O)C[C@H](OC)[C@H]2C[C@@H]4[C@@H]1C2O (stereo not given in full) | % | 100
c1cncc([C@H]2CCCCN2)c1 | % | 99.3
CCC(=O)OC(Cc1ccccc1)(c1ccccc1)C(C)CN(C)C (stereo not given) | % | 74.7
C[C@@H]1CC[C@@]2(NC1)O[C@H]1C[C@H]3[C@@H]4CC=C5C[C@@H](O)CC[C@]5(C)[C@H]4CC[C@]3(C)[C@H]1[C@@H]2C | % | 95.9

Could you now look at the following compound, please?
(Q) Return reported viability; argument: CC(=O)Oc1ccc(Cl)c2cccnc12
(A) 65.2
